// data source = patent US20240391862A1

# Tested on: ABUTH
# assay.name: Post-emergence herbicidal effect, greenhouse pot test
# Format: in vivo, Abutilon theophrasti
# test.parameters: 320 g/ha, visual rating about 3 weeks after treatment
measured.endpoint: Post-emergence effect against ABUTH (%)
Dear colleague, please return just the value in %, with no unit written.

Consider the worked cases shown below.
* COC(=O)C(OC)Oc1nn(-c2ncccc2F)c(-c2ccc(F)nc2)c1C1CC1 (stereo not shown) [Example I-107] | 80
* COC(=O)CCOC(=O)C(OC)Oc1nn(-c2ccccc2F)c(-c2ccc(F)nc2)c1C1CC1 (single isomer, unassigned) [Example I-74] | 90
* COC(=O)CCOC(=O)C(OC)Oc1nn(-c2ncccc2F)c(-c2ccc(F)nc2)c1C1CC1 (single isomer, unassigned) [Example I-80] | 80
* COC(=O)CCOC(=O)C(OC)Oc1nn(-c2ncccc2F)c(-c2ccc(F)nc2)c1C1CC1 (single isomer, unassigned) [Example I-81] | 90
* COC(=O)CCOC(=O)C(OC)Oc1nn(-c2ncccc2F)c(-c2cncc(F)c2)c1C1CC1 (single isomer, unassigned) [Example I-77] | 80

-- ask What reported Post-emergence effect against ABUTH corresponds to COC(Oc1nn(-c2ncccc2F)c(-c2ccc(F)nc2)c1C1CC1)C(=O)O (stereo not shown) on ABUTH?
-- reply 90

-- ask So what Post-emergence effect against ABUTH did CCOC(Oc1nn(-c2ccccc2F)c(-c2ccc(F)nc2)c1Cl)C(=O)OCC(C)C(=O)OC (racemic) get with ABUTH?
-- reply 80

###

# Test system: VIOTR
# assay.name: Post-emergence herbicidal effect, greenhouse pot test
# Assay type: in vivo, Viola tricolor
# test.parameters: Viola tricolor, 504 h, 80 g/ha, read-out: Post-emergence effect against VIOTR in %
measured.endpoint: pest or weed control at 80 g/ha (%)
Hi! Could you send only the number? It should be in %, unit omitted.

Example results:
* CCOC(=O)C(OC)Oc1nn(-c2ncccc2F)c(-c2ccc(F)nc2)c1Cl (centres unmarked) | 90
* COC(=O)C(OC)Oc1nn(-c2ccccc2F)c(-c2ccc(F)nc2)c1Br (racemic) | 80
* CCOC(=O)C(OC)Oc1nn(-c2cnccn2)c(-c2ccc(F)nc2)c1Br (centres unmarked) | 80
* COC(=O)C(OC)Oc1nn(-c2ncccc2F)c(-c2cncc(F)c2)c1Br (centres unmarked) | 80
* COC(=O)C(OC)Oc1nn(-c2cc(F)ccc2F)c(-c2cncc(F)c2)c1C1CC1 (centres unmarked) | 80
* CCOC(=O)C(OC)Oc1nn(-c2cc(F)ccc2F)c(-c2cncc(F)c2)c1C1CC1 (centres unmarked) | 90
* COC(=O)C(OC)Oc1nn(-c2ccccc2F)c(-c2ccc(F)nc2)c1C(F)(F)F (centres unmarked) | 90

-- ask Which pest or weed control at 80 g/ha is reported for this compound? COC(=O)C(OC)Oc1nn(-c2ccccc2)c(-c2ccc(F)nc2)c1Br (centres unmarked)
-- reply 90

###

# Tested on: TRZAS
# assay.name: Post-emergence herbicidal effect and crop plant compatibility, greenhouse pot test
# Assay type: in vivo, Triticum aestivum
# test.parameters: 320 g/ha, visual rating about 3 weeks after treatment, crop plant
measured.endpoint: Post-emergence effect against TRZAS (%)
Write the value in % as a bare number.

• COC(Oc1nn(-c2cccc(C)c2F)c(-c2ccnc(F)c2)c1Br)C(=O)O (stereo not shown) = 20
• CCOC(=O)C(OC)Oc1nn(-c2cccc(C)c2F)c(-c2ccc(F)nc2)c1Br (stereo not shown) = 20
• COC(=O)CCOC(=O)C(OC)Oc1nn(-c2cccc(C)c2F)c(-c2ccc(F)nc2)c1Br (stereo not shown) = 0

Now look at this entry.
-- ask Please look up its Post-emergence effect against TRZAS: COC(=O)C(OC)Oc1nn(-c2ccc(Cl)cc2F)c(-c2ccc(F)cc2F)c1Br (stereo not shown)
-- reply 0
